Source listed as patent US20130260436A1.

Target: Sfp (Bacillus spizizenii)
Sequence (G4NQW2 entry or part of it): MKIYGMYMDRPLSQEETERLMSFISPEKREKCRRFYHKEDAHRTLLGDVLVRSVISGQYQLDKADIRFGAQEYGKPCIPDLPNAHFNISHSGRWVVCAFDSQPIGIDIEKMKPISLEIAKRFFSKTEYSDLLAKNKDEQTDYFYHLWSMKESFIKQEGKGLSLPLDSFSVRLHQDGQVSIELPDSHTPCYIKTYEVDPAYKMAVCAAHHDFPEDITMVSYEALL
Experiment: BpsA coupled PPTase inhibition assay, Sfp
Type: biochemical, B. subtilis subsp. spizizenii ATCC6633
Conditions: Ki, Sfp; 5 μM CoA; Cheng-Prusoff, competitive inhibition
OUTCOME MEASURE: pKi
Numbers only, as −log10 of the molar value.

In: Which pKi is reported for this compound? O=Nc1ccc2oc(=O)ccc2c1 [6-NOBP]
Out: 6.00
